Values from ChEMBL document CHEMBL4513216

# test-summary: Toxicity liver stage against HepG2, at 10uM
# Type: cell-based
# Parameters: test concentration 10 uM, cell line HepG2-A16-CD81EGFP
# test-conditions: human, HepG2-A16-CD81EGFP cells; read-out: INHIBITION
Entries and their measured cytotoxicity at 10 µM follow.

{"compound": "CCC(NC(=O)Cn1ccc(=O)n(C)c1=O)c1ccc(OC)cc1 (configuration not stated)", "cytotoxicity at 10 µM [%]": 2.19}
{"compound": "CC(O)CN1CCC(CNCc2cccc(C(=O)N(C)C)c2)CC1 (configuration not stated)", "cytotoxicity at 10 µM [%]": -12.8}
{"compound": "CC(C)n1c(C2CCCN(CC(N)=O)C2)nc2ccccc21 (configuration not stated)", "cytotoxicity at 10 µM [%]": -7.68}
{"compound": "CN1CCC(N2CCC[C@H]2c2nc(-c3cncnc3N)no2)CC1", "cytotoxicity at 10 µM [%]": -5.33}
{"compound": "CN(Cc1ccc([S+](C)[O-])cc1)c1ccccn1 (configuration not stated)", "cytotoxicity at 10 µM [%]": -7}
{"compound": "O=C(CNC(=O)C1CC1)NCCOc1cccc(Cl)c1Cl", "cytotoxicity at 10 µM [%]": 5.04}
{"compound": "c1ccc(-n2ncc(CN3CCCC(Cn4cncn4)C3)n2)cc1 (configuration not stated)", "cytotoxicity at 10 µM [%]": -6.04}
{"compound": "CCn1ncc(S(=O)(=O)NC2(CN3CCOCC3)CCCCC2)c1C", "cytotoxicity at 10 µM [%]": 3.83}
{"compound": "CN(CCc1ccccc1)Cc1c(C2CCOCC2)[nH]c2ncccc12", "cytotoxicity at 10 µM [%]": 4.21}
{"compound": "CC(C)(C)Oc1ccc(C(=O)N2CCOCC2c2ncon2)cc1 (configuration not stated)", "cytotoxicity at 10 µM [%]": -0.968}
{"compound": "CCCNC(=O)c1sc(Nc2ccc(Cl)cn2)nc1C", "cytotoxicity at 10 µM [%]": -15.2}
{"compound": "CCOc1ncccc1NC(=O)N1CCC(CN2CCOCC2)CC1", "cytotoxicity at 10 µM [%]": -13.6}

###

Entries and their measured cytotoxicity at 10 µM follow.
# test-summary: Toxicity liver stage against HepG2, at 10uM
# Assay type: cell-based
# Set-up: test concentration 10 uM, cell line HepG2-A16-CD81EGFP
# test-conditions: human, HepG2-A16-CD81EGFP cells; read-out: INHIBITION
measured-metric: cytotoxicity at 10 µM (%)

{"compound": "CCc1csc(C2CCCN(C(=O)c3ccccn3)C2)n1 (configuration not stated)", "measured-metric": "cytotoxicity at 10 µM", "reported-measurement": 1.36}
{"compound": "O=C(CC(F)(F)F)N1C[C@H]2CN(CC3CC3)C(=O)[C@H]2C1", "measured-metric": "cytotoxicity at 10 µM", "reported-measurement": 0.493}
{"compound": "COc1ccc(CCNC(=O)Nc2cc(C)nn2C)cc1", "measured-metric": "cytotoxicity at 10 µM", "reported-measurement": -2.87}
{"compound": "O=C(C1CC=CC1)N1C[C@@H](OCc2cccnc2)[C@H]2OCCC[C@H]21", "measured-metric": "cytotoxicity at 10 µM", "reported-measurement": 2.74}
{"compound": "Cc1ccc(NC2CCN(C(=O)CCCc3ccccn3)CC2)cc1", "measured-metric": "cytotoxicity at 10 µM", "reported-measurement": 13.3}
{"compound": "OC(CNCCc1nnc2ccccn12)c1ccc(F)c(F)c1 (configuration not stated)", "measured-metric": "cytotoxicity at 10 µM", "reported-measurement": 2.52}
{"compound": "O=C(CN(Cc1ccco1)C1CC1)N1CCCCCC1", "measured-metric": "cytotoxicity at 10 µM", "reported-measurement": -3.26}
{"compound": "CN(C(=O)COC1CCCC1)C1CCN(CC2CCOC2)CC1 (configuration not stated)", "measured-metric": "cytotoxicity at 10 µM", "reported-measurement": -9.98}
{"compound": "CCc1nc(N2CCCC(CCOC)(C(=O)O)C2)ncc1C (configuration not stated)", "measured-metric": "cytotoxicity at 10 µM", "reported-measurement": 4.11}
{"compound": "CCS(=O)(=O)c1ccc(N2CCC(NC(=O)CCC(C)C)CC2)cc1", "measured-metric": "cytotoxicity at 10 µM", "reported-measurement": 15.7}
{"compound": "CN(CC1CCN(CCO)CC1)CC(O)c1ccc(F)c(F)c1 (configuration not stated)", "measured-metric": "cytotoxicity at 10 µM", "reported-measurement": -51.5}
{"compound": "CN1CCOCC2(CCCN(C(=O)c3cnccn3)C2)C1 (configuration not stated)", "measured-metric": "cytotoxicity at 10 µM", "reported-measurement": -75.4}
{"compound": "COCCN1CCC2(CC1)CC(Nc1ccc(C)nn1)CO2 (configuration not stated)", "measured-metric": "cytotoxicity at 10 µM", "reported-measurement": -0.818}
{"compound": "COc1ccc(Br)c(NC(=O)NCc2ncnn2C)c1", "measured-metric": "cytotoxicity at 10 µM", "reported-measurement": 5.41}
{"compound": "Cc1nc(OCC(=O)N2CCCC2)cc(-n2cccn2)n1", "measured-metric": "cytotoxicity at 10 µM", "reported-measurement": 3.99}
{"compound": "C=Cc1ccc(C(=O)N2CCCC(Nc3ccc(F)c(F)c3)C2)cc1 (configuration not stated)", "measured-metric": "cytotoxicity at 10 µM", "reported-measurement": -9.03}
{"compound": "CCCOc1cc(C)ccc1NC(=O)NCCNC(C)=O", "measured-metric": "cytotoxicity at 10 µM", "reported-measurement": -6.58}
{"compound": "N[C@@H]1CCN(Cc2ccccc2CS(=O)(=O)c2ccccc2)C[C@H]1O", "measured-metric": "cytotoxicity at 10 µM", "reported-measurement": -2.58}
{"compound": "Cc1cc(C)n(CCC(=O)N2CCCC(c3nc(C(C)C)no3)C2)n1 (configuration not stated)", "measured-metric": "cytotoxicity at 10 µM", "reported-measurement": 8.27}
{"compound": "CC(C)c1nc(CN(C)Cc2ncccc2C(=O)O)cs1", "measured-metric": "cytotoxicity at 10 µM", "reported-measurement": -15.3}
{"compound": "O=C(C1CCOC1)N1C[C@H]2CN(Cc3cccc(F)c3)C(=O)[C@H]2C1 (some centres not stated)", "measured-metric": "cytotoxicity at 10 µM", "reported-measurement": -106}
{"compound": "COCC1CC2(CCN(C(=O)c3ccc(F)c(Cl)c3)CC2)CO1 (configuration not stated)", "measured-metric": "cytotoxicity at 10 µM", "reported-measurement": -131}
{"compound": "CCCNC(=O)C[S+]([O-])Cc1csc(C2CCCCC2)n1 (configuration not stated)", "measured-metric": "cytotoxicity at 10 µM", "reported-measurement": -48.2}
{"compound": "CCCS(=O)(=O)N1CCOC2(CCCN(Cc3ccccn3)C2)C1 (configuration not stated)", "measured-metric": "cytotoxicity at 10 µM", "reported-measurement": -0.58}
{"compound": "CCN1CCCC(NC(=O)CCn2c(C(F)F)cc3cccnc32)C1 (configuration not stated)", "measured-metric": "cytotoxicity at 10 µM", "reported-measurement": -0.212}
{"compound": "Cc1nn(C)c(C)c1C1COCCN1C(=O)CSC(C)(C)C (configuration not stated)", "measured-metric": "cytotoxicity at 10 µM", "reported-measurement": 4.22}
{"compound": "COCCN(CCC#N)S(=O)(=O)c1ccc(F)cc1Cl", "measured-metric": "cytotoxicity at 10 µM", "reported-measurement": 2.13}
{"compound": "Cc1cc(CN2CCC(CNC(=O)Cc3ccc(F)cc3)C2)[nH]n1 (configuration not stated)", "measured-metric": "cytotoxicity at 10 µM", "reported-measurement": -139}
{"compound": "OC1(c2ccc(F)cc2)CCN(Cc2ccccc2N2CCCC2)CC1", "measured-metric": "cytotoxicity at 10 µM", "reported-measurement": 20.5}
{"compound": "CCOc1ccc(Cl)c(C(=O)N2CCCC(c3ccn[nH]3)C2)n1 (configuration not stated)", "measured-metric": "cytotoxicity at 10 µM", "reported-measurement": 1.58}
{"compound": "CCN(c1ccc(C(=O)Nc2c(C)nn(C(C)C)c2C)cc1)C(C)C", "measured-metric": "cytotoxicity at 10 µM", "reported-measurement": -2.92}
{"compound": "Cn1cc(C(=O)Nc2cccc(-c3ccc4c(c3)CCO4)n2)ccc1=O", "measured-metric": "cytotoxicity at 10 µM", "reported-measurement": 3.72}
{"compound": "CC(C)(C)CN1CCCC12CCN(S(=O)(=O)c1ccccc1)C2 (configuration not stated)", "measured-metric": "cytotoxicity at 10 µM", "reported-measurement": -67.5}
{"compound": "Cc1cnn(CC2CCCCN2C(=O)Cn2nc(C)c(Cl)c2C)c1 (configuration not stated)", "measured-metric": "cytotoxicity at 10 µM", "reported-measurement": -6.24}
{"compound": "O=C1NCCN1C1CCCN(Cc2nnc(-c3ccc(F)cc3)o2)C1 (configuration not stated)", "measured-metric": "cytotoxicity at 10 µM", "reported-measurement": -7.69}
{"compound": "O=C(CCc1c[nH]cn1)N1CC[C@@H](c2ccc3ccccc3c2)[C@H](O)C1", "measured-metric": "cytotoxicity at 10 µM", "reported-measurement": -4.04}
{"compound": "CC(NC(=O)N1CCc2sccc2C1)c1nncn1C (configuration not stated)", "measured-metric": "cytotoxicity at 10 µM", "reported-measurement": -8.6}
{"compound": "Cc1cccc(C(=O)NC2CCN(c3cnn(C)c3)C2=O)c1C (configuration not stated)", "measured-metric": "cytotoxicity at 10 µM", "reported-measurement": -1.2}
{"compound": "Cc1cc(Cc2ccc(S(=O)(=O)N3CCCC3)cc2)c(=O)[nH]n1", "measured-metric": "cytotoxicity at 10 µM", "reported-measurement": 6.47}
{"compound": "CCCc1nc(NCCCOC)c2c(n1)c(C)nn2CC", "measured-metric": "cytotoxicity at 10 µM", "reported-measurement": 24.6}
{"compound": "Cc1csc(CNC(=O)NCC(C)Cn2nc(C)cc2C)n1 (configuration not stated)", "measured-metric": "cytotoxicity at 10 µM", "reported-measurement": 3.26}
{"compound": "CCn1cc(CN2CCCN(C(=O)c3cc(C)no3)CC2)cn1", "measured-metric": "cytotoxicity at 10 µM", "reported-measurement": 3.22}
{"compound": "CCOC(=O)C1(Cc2cccc(OC)c2)CCN(Cc2ncc[nH]2)CC1", "measured-metric": "cytotoxicity at 10 µM", "reported-measurement": -7.82}
{"compound": "CCCN1CCCC2(CCN(S(=O)(=O)N3CCC(OC)CC3)C2)C1=O (configuration not stated)", "measured-metric": "cytotoxicity at 10 µM", "reported-measurement": 1.48}
{"compound": "CCc1noc(CC)c1CC(=O)N1CCCC(N2CCCCC2)C1 (configuration not stated)", "measured-metric": "cytotoxicity at 10 µM", "reported-measurement": -15.3}
{"compound": "CCCN1CCc2nc(SCc3c(C)cc(C)cc3C)[nH]c(=O)c2C1", "measured-metric": "cytotoxicity at 10 µM", "reported-measurement": -2.33}
{"compound": "O=C(CN1CCCCC1Cn1cncn1)NCCc1ccc(F)cc1 (configuration not stated)", "measured-metric": "cytotoxicity at 10 µM", "reported-measurement": -1.65}
